Assignment: determine reported MIC for the given compounds.
System: Moraxella catarrhalis
measurement notes: Antibacterial activity against Moraxella catarrhalis ATCC 23246 after 24 hrs at 37 degC by CLSI protocol based microdilution method
Format: functional
run conditions: ATCC 23246, 24 h

{"given smiles": "CC[C@H]1OC(=O)[C@H](C)[C@@H](O[C@H]2C[C@@](C)(OC)[C@@H](O)[C@H](C)O2)[C@H](C)[C@@H](O[C@@H]2O[C@H](C)C[C@H](N)[C@H]2O)[C@](C)(OC)C[C@@H](C)C(=O)N[C@H](C)[C@@H](O)[C@]1(C)O", "MIC": "> 64 µg/mL"}

Hi! Can you tell me MIC for each of these compounds?
1. CC[C@H]1OC(=O)[C@H](C)[C@@H](O[C@H]2C[C@@](C)(OC)[C@@H](O)[C@H](C)O2)[C@H](C)[C@@H](O[C@@H]2O[C@H](C)C[C@H]3[C@H]2OC(=O)N3CC)[C@](C)(O)C[C@@H](C)CN(C)[C@H](C)[C@@H](O)[C@]1(C)O
2. CC[C@H]1OC(=O)[C@H](C)[C@@H](O[C@H]2C[C@@](C)(OC)[C@@H](O)[C@H](C)O2)[C@H](C)[C@@H](O[C@@H]2O[C@H](C)C[C@H]3[C@H]2OC(=O)N3C)[C@](C)(O)C[C@@H](C)CN(C)[C@H](C)[C@@H](O)[C@]1(C)O
3. CC[C@H]1OC(=O)[C@H](C)[C@@H](O[C@H]2C[C@@](C)(OC)[C@@H](O)[C@H](C)O2)[C@H](C)[C@@H](O[C@@H]2O[C@H](C)C[C@H](N(C)C)[C@H]2O)[C@](C)(OC)C[C@@H](C)C(=O)N[C@H](C)[C@@H](O)[C@]1(C)O
4. CC[C@H]1OC(=O)[C@H](C)[C@@H](O[C@H]2C[C@@](C)(OC)[C@@H](O)[C@H](C)O2)[C@H](C)[C@@H](O[C@@H]2O[C@H](C)C[C@H](N(C)C)[C@H]2O)[C@](C)(OC)C[C@@H](C)C(=O)[C@H](C)[C@@H](O)[C@]1(C)O
5. CC[C@H]1OC(=O)[C@H](C)[C@@H](O[C@H]2C[C@@](C)(OC)[C@@H](O)[C@H](C)O2)[C@H](C)[C@@H](O[C@@H]2O[C@H](C)C[C@H](N)[C@H]2O)[C@](C)(OC)C[C@@H](C)C(=O)[C@H](C)[C@@H](O)[C@]1(C)O
6. C=CCN1C(=O)O[C@H]2[C@H](O[C@@H]3[C@@H](C)[C@H](O[C@H]4C[C@@](C)(OC)[C@@H](O)[C@H](C)O4)[C@@H](C)C(=O)O[C@H](CC)[C@@](C)(O)[C@H](O)[C@@H](C)N(C)C[C@H](C)C[C@@]3(C)O)O[C@H](C)C[C@@H]21
7. CC[C@H]1OC(=O)[C@H](C)[C@@H](O[C@H]2C[C@@](C)(OC)[C@@H](O)[C@H](C)O2)[C@H](C)[C@@H](O[C@@H]2O[C@H](C)C[C@H]3[C@H]2OC(=O)N3CC)[C@](C)(OC)C[C@@H](C)C(=O)N[C@H](C)[C@@H](O)[C@]1(C)O
8. CC[C@H]1OC(=O)[C@H](C)[C@@H](O[C@H]2C[C@@](C)(OC)[C@@H](O)[C@H](C)O2)[C@H](C)[C@@H](O[C@@H]2O[C@H](C)C[C@H](NC)[C@H]2O)[C@](C)(OC)C[C@@H](C)C(=O)N[C@H](C)[C@@H](O)[C@]1(C)O

Resp:
["> 64 µg/mL", "> 64 µg/mL", "0.5 µg/mL", "< 0.125 µg/mL", "16 µg/mL", "> 64 µg/mL", "> 64 µg/mL", "16 µg/mL"]

====

System: Moraxella catarrhalis
measurement notes: Antibacterial activity against Moraxella catarrhalis ATCC 23246 after 24 hrs at 37 degC by CLSI protocol based microdilution method
Type: functional
run conditions: ATCC 23246, 24 h
measured metric: MIC (µg/mL)
Answers are plain numbers, in µg/mL.

Req: I have this molecule here, CC[C@H]1OC(=O)[C@H](C)[C@@H](O[C@H]2C[C@@](C)(OC)[C@@H](O)[C@H](C)O2)[C@H](C)[C@@H](O[C@@H]2O[C@H](C)C[C@H](NC)[C@H]2O)[C@](C)(OC)C[C@@H](C)C(=O)[C@H](C)[C@@H](O)[C@]1(C)O , and I need its recorded MIC.
Resp: 2

====

Would you kindly list MIC for each of these molecules?
System: Streptococcus pyogenes
measurement notes: Antibacterial activity against Streptococcus pyogenes ATCC 700294 after 24 hrs at 37 degC by CLSI protocol based microdilution method
Assay type: functional
run conditions: ATCC 700294, 24 h

# count of solved cases: 4
{"molecule": "CC[C@H]1OC(=O)[C@H](C)[C@@H](O[C@H]2C[C@@](C)(OC)[C@@H](O)[C@H](C)O2)[C@H](C)[C@@H](O[C@@H]2O[C@H](C)C[C@H]3[C@H]2OC(=O)N3CC)[C@](C)(OC)C[C@@H](C)C(=O)[C@H](C)[C@@H](O)[C@]1(C)O", "MIC": "> 64 µg/mL"}
{"molecule": "CC[C@H]1OC(=O)[C@H](C)[C@@H](O[C@H]2C[C@@](C)(OC)[C@@H](O)[C@H](C)O2)[C@H](C)[C@@H](O[C@@H]2O[C@H](C)C[C@H](NC)[C@H]2O)[C@](C)(OC)C[C@@H](C)C(=O)[C@H](C)[C@@H](O)[C@]1(C)O", "MIC": "< 0.25 µg/mL"}
{"molecule": "CCCCCCN1C(=O)O[C@H]2[C@H](O[C@@H]3[C@@H](C)[C@H](O[C@H]4C[C@@](C)(OC)[C@@H](O)[C@H](C)O4)[C@@H](C)C(=O)O[C@H](CC)[C@@](C)(O)[C@H](O)[C@@H](C)N(C)C[C@H](C)C[C@@]3(C)O)O[C@H](C)C[C@@H]21", "MIC": "> 64 µg/mL"}
{"molecule": "CCCN1C(=O)O[C@H]2[C@H](O[C@@H]3[C@@H](C)[C@H](O[C@H]4C[C@@](C)(OC)[C@@H](O)[C@H](C)O4)[C@@H](C)C(=O)O[C@H](CC)[C@@](C)(O)[C@H](O)[C@@H](C)N(C)C[C@H](C)C[C@@]3(C)O)O[C@H](C)C[C@@H]21", "MIC": "> 64 µg/mL"}

# map each molecule to its MIC
1. CC[C@H]1OC(=O)[C@H](C)[C@@H](O[C@H]2C[C@@](C)(OC)[C@@H](O)[C@H](C)O2)[C@H](C)[C@@H](O[C@@H]2O[C@H](C)C[C@H](NC)[C@H]2O)[C@](C)(O)C[C@@H](C)CN(C)[C@H](C)[C@@H](O)[C@]1(C)O
2. CC[C@H]1OC(=O)[C@H](C)[C@@H](O[C@H]2C[C@@](C)(OC)[C@@H](O)[C@H](C)O2)[C@H](C)[C@@H](O[C@@H]2O[C@H](C)C[C@H](N(C)C)[C@H]2O)[C@](C)(OC)C[C@@H](C)C(=O)[C@H](C)[C@@H](O)[C@]1(C)O [CLARITHROMYCIN]

Resp:
1: 2 µg/mL; 2: < 0.125 µg/mL

====

Test system: Streptococcus pyogenes
measurement notes: Antibacterial activity against Streptococcus pyogenes ATCC 700294 after 24 hrs at 37 degC by CLSI protocol based microdilution method
Assay type: functional
run conditions: ATCC 700294, 24 h
measured metric: MIC

{"given smiles": "CC[C@H]1OC(=O)[C@H](C)[C@@H](O[C@H]2C[C@@](C)(OC)[C@@H](O)[C@H](C)O2)[C@H](C)[C@@H](O[C@@H]2O[C@H](C)C[C@H](N(C)C)[C@H]2O)[C@](C)(O)C[C@@H](C)CN(C)[C@H](C)[C@@H](O)[C@]1(C)O", "target desc": "Streptococcus pyogenes", "measured metric": "MIC", "assay value": "< 0.125 µg/mL"}

Could you report MIC for every entry in the following list?
1. CC[C@H]1OC(=O)[C@H](C)[C@@H](O[C@H]2C[C@@](C)(OC)[C@@H](O)[C@H](C)O2)[C@H](C)[C@@H](O[C@@H]2O[C@H](C)C[C@H](N)[C@H]2O)[C@](C)(OC)C[C@@H](C)C(=O)N[C@H](C)[C@@H](O)[C@]1(C)O
2. CC[C@H]1OC(=O)[C@H](C)[C@@H](O[C@H]2C[C@@](C)(OC)[C@@H](O)[C@H](C)O2)[C@H](C)[C@@H](O[C@@H]2O[C@H](C)C[C@H](N)[C@H]2O)[C@](C)(OC)C[C@@H](C)C(=O)[C@H](C)[C@@H](O)[C@]1(C)O
3. CC[C@H]1OC(=O)[C@H](C)[C@@H](O[C@H]2C[C@@](C)(OC)[C@@H](O)[C@H](C)O2)[C@H](C)[C@@H](O[C@@H]2O[C@H](C)C[C@H]3[C@H]2OC(=O)N3CC)[C@](C)(O)C[C@@H](C)CN(C)[C@H](C)[C@@H](O)[C@]1(C)O

Resp:
1. > 64 µg/mL
2. 2 µg/mL
3. > 64 µg/mL
